Cited source: the supplement of paper PMC11780869

Tested on: Bacillus subtilis
Experiment: cleaved RNA product abundance (RNA/gDNA barcode ratio) relative to median wild-type variant (ratio to wild type); higher = more accumulation of the downstream cleavage product
Conditions: experiment (reporter, strain, medium): exp 2b: truncated aprE reporter, strain BJT200; cleavage site: cggR-gapA (positions -7 to +36 mutated)
Bucketed by reported cleaved RNA product abundance, buckets being 0 = under 0.1, 1 = from 0.1 up to 0.3, 2 = 0.3 and over

Below are worked cases with known answers.
ACAGACGAAGGAGCCGCAAAGAAGTTATAAAGGGATGTATAATCCCTCAATATAAATATCTCTCACTTATTTAAA    2
ACAGACGAAGGAGCCGCAAAGACGTTATTAAGGGATGAATAATCCTTCAATATAAATATCTCTCACTTATTTAAA    2
ACAGACGAAGGAGCCGCAAAGAAGTTATTAAGGGATGAATTATCTCTCAATATAAATATCTCTCACTTATTTAAA    2

Task: Band for the recorded cleaved RNA product abundance of `ACAGACGAAGGAGCCGCAAAGAAGATATTAAGGGATGAATAATCCCTCACTATAAATATCTCTCACTTATTTAAA` ?
Output: 1

Task: Band for the recorded cleaved RNA product abundance of `ACAGACGAAGGAGCCGCAAAGAAGTTATTATGAGATGAATAATCCCTCAATATAAATATCTCTCACTTATTTAAA` ?
Output: 0

Task: Band for the recorded cleaved RNA product abundance of `ACAGACGAAGGAGCCGCAAAGCAGTTATTAAGGGATGCATAATCCCTCAATATAAATATCTCTCACTTATTTAAA` ?
Output: 0

Task: Band for the recorded cleaved RNA product abundance of `ACAGACGAAGGAGCCGCAAAGAAGTTATTAAGGGATGAATAATTCCTCACTATAAATATCTCTCACTTATTTAAA` ?
Output: 1

Task: Band for the recorded cleaved RNA product abundance of `ACAGACGAAGGAGCCGCAAAGAAGTTATTAAGGGATGAATAATTCCTCAACATAAATATCTCTCACTTATTTAAA` ?
Output: 1

Task: Band for the recorded cleaved RNA product abundance of `ACAGACGAAGGAGCCGCAAAGAAGTTATTAAGGTATGAATAATCCCTCAATTTAAATATCTCTCACTTATTTAAA` ?
Output: 0

Task: Band for the recorded cleaved RNA product abundance of `ACAGACGAAGGAGCCGCAAAGAAGTTATTAAGGAATGAATACTCCCTCAATATAAATATCTCTCACTTATTTAAA` ?
Output: 1

====

Test system: Bacillus subtilis
Assay: cleaved RNA product abundance (RNA/gDNA barcode ratio) relative to median wild-type variant (ratio to wild type); higher = more accumulation of the downstream cleavage product
Conditions: experiment (reporter, strain, medium): exp 2b: truncated aprE reporter, strain BJT200; cleavage site: cggR-gapA (positions -7 to +36 mutated)
Observation Type: cleaved RNA product abundance
The answer should be written as a number, with no unit following it.

Reference set (5 entries):
ACAGACGAAGGAGCCGCAATGAAGTTATTAAGGGATGAATAATCCCTCAATATAAATATCTCTCACTTATTTAAA    1.1
ACAGACGAAGGAGCCGCAAAGAAGTTAGTAAGGGAGGAATAATCCCTCAATATAAATATCTCTCACTTATTTAAA    0.123
ACAGACGAAGGAGCCGCAAAGAAGTTATTAAGGGATTAATAATCCCTCACTATAAATATCTCTCACTTATTTAAA    0.233
ACAGACGAAGGAGCCGCAAAGAAGTTATTCAGGGATGAATTATCCCTCAATATAAATATCTCTCACTTATTTAAA    0.56
ACAGACGAAGGAGCCGCAAAGAATTTATTAAGGGAAGAATAATCCCTCAATATAAATATCTCTCACTTATTTAAA    0.289

Task: What reported cleaved RNA product abundance corresponds to `ACAGACGAAGGAGCCGCAAAGAAGTTATGAAGGGATTAATAATCCCTCAATATAAATATCTCTCACTTATTTAAA` on Bacillus subtilis?
Output: 0.402

Task: What reported cleaved RNA product abundance corresponds to `ACAGACGAAGGAGCCGCAAAGAAGTTATTAGGGGATGGATAATCCCTCAATATAAATATCTCTCACTTATTTAAA` on Bacillus subtilis?
Output: 0.481
